- System: Ascophyta pisi (MUCL 30164)
- Assay type: cell-based
- details: Table 7: Rs-AFP1-based 12-mer split peptides; ½ PDB
Residues, ends and D or L forms follow the SMILES beside them.
reported-endpoint: A PISI IC50

Which A PISI IC50 value is on record for CC[C@H](C)[C@H](NC(=O)[C@H](CS)NC(=O)[C@H](CCCCN)NC(=O)[C@H](Cc1c[nH]cn1)NC(=O)[C@H](C)NC(=O)[C@@H]1CCCN1C(=O)[C@H](Cc1ccccc1)NC(=O)[C@@H](NC(=O)[C@H](Cc1ccc(O)cc1)NC(=O)[C@H](CC(N)=O)NC(C)=O)C(C)C)C(=O)N[C@@H](CS)C(=O)N[C@@H](Cc1ccc(O)cc1)C(N)=O [compound 126] (Ac-NYVFPAHKCICY-NH2) ? 298 µg/mL

====

Let's look at some substances and their measured F CULMORUM MIC.
- Test system: Fusarium culmorum (IMI 180420)
- assay-protocol: Antifungal growth inhibition microplate assay (photospectrometry)
- Type: cell-based
- details: Table 6: Rs-AFP1-based 9-mer split peptides; ½ PDB
Record the value in µg/mL, omitting the unit from your answer.

Record excerpt, results attached:
• Ac-KARHGSCNY-NH2 [compound 76] = 250
• Ac-YVFPAHKCI-NH2 [compound 84] = 250
• Ac-RHGSCNYVF-NH2 [compound 78] = 100

Which F CULMORUM MIC value is on record for Ac-NYVFPAHKC-NH2 [compound 83] ? 400

Do the same for Ac-ARHGSCNYV-NH2 [compound 77] please 300

Do the same for Ac-CNYVFPAHK-NH2 [compound 82] please 150

====

- System: Ascophyta pisi (MUCL 30164)
- Type: cell-based
- details: Table 7: Rs-AFP1-based 12-mer split peptides; ½ PDB
Let's look at some substances and their measured A PISI MIC.

* Ac-EKARHGSCNYVF-NH2 [compound 118] | 200 µg/mL
* Ac-HGSCNYVFPAHK-NH2 [compound 122] | 100 µg/mL
* 114 (CIRLEKARHGSC; listed as Raphanus sativus) [compound 114] | >400 µg/mL
* Ac-LEKARHGSCNYV-NH2 [compound 117] | 400 µg/mL

Field: next substance
Which A PISI MIC value is on record for Ac-KARHGSCNYVFP-NH2 [compound 119] ? 100 µg/mL

====

- Test system: Ascophyta pisi (MUCL 30164)
- Type: cell-based
- details: Table 7: Rs-AFP1-based 12-mer split peptides; ½ PDB
Residues, ends and D or L forms follow the SMILES beside them.
reported-endpoint: A PISI IC50 (mg/L)
Record the value in mg/L, omitting the unit from your answer.

Record excerpt, results attached:
• CC[C@H](C)[C@H](NC(=O)[C@H](CS)NC(=O)[C@H](CCCCN)NC(=O)[C@H](Cc1c[nH]cn1)NC(=O)[C@H](C)NC(=O)[C@@H]1CCCN1C(=O)[C@H](Cc1ccccc1)NC(=O)[C@@H](NC(C)=O)C(C)C)C(=O)N[C@@H](CS)C(=O)N[C@@H](Cc1ccc(O)cc1)C(=O)N[C@@H](Cc1ccccc1)C(=O)N1CCC[C@H]1C(N)=O [compound 128] (Ac-VFPAHKCICYFP-NH2) = 181
• CC[C@H](C)[C@H](NC(=O)[C@H](CS)NC(=O)[C@H](CCCCN)NC(=O)[C@H](Cc1c[nH]cn1)NC(=O)[C@H](C)NC(=O)[C@@H]1CCCN1C(=O)[C@H](Cc1ccccc1)NC(=O)[C@@H](NC(=O)[C@H](Cc1ccc(O)cc1)NC(C)=O)C(C)C)C(=O)N[C@@H](CS)C(=O)N[C@@H](Cc1ccc(O)cc1)C(=O)N[C@@H](Cc1ccccc1)C(N)=O [compound 127] (Ac-YVFPAHKCICYF-NH2) = 302
• CC[C@H](C)[C@H](NC(=O)[C@H](CS)NC(=O)[C@H](CCCCN)NC(=O)[C@H](Cc1c[nH]cn1)NC(=O)[C@H](C)NC(=O)[C@@H]1CCCN1C(=O)[C@H](Cc1ccccc1)NC(=O)[C@@H](NC(=O)[C@H](Cc1ccc(O)cc1)NC(=O)[C@H](CC(N)=O)NC(=O)[C@H](CS)NC(=O)[C@H](CO)NC(C)=O)C(C)C)C(N)=O [compound 124] (Ac-SCNYVFPAHKCI-NH2) = 318

Field: next molecule
Which A PISI IC50 value is on record for CC(=O)NCC(=O)N[C@@H](CO)C(=O)N[C@@H](CS)C(=O)N[C@@H](CC(N)=O)C(=O)N[C@@H](Cc1ccc(O)cc1)C(=O)N[C@H](C(=O)N[C@@H](Cc1ccccc1)C(=O)N1CCC[C@H]1C(=O)N[C@@H](C)C(=O)N[C@@H](Cc1c[nH]cn1)C(=O)N[C@@H](CCCCN)C(=O)N[C@@H](CS)C(N)=O)C(C)C [compound 123] (Ac-GSCNYVFPAHKC-NH2) ? 349

====

- Test system: Fusarium culmorum (IMI 180420)
- assay-protocol: Antifungal growth inhibition microplate assay (photospectrometry)
- Type: cell-based
- details: Table 7 / FIG. 8: Rs-AFP1-based 12-mer split peptides; ½ PDB; the source numbers peptides by N-terminal amino acid
Residues, ends and D or L forms follow the SMILES beside them.
reported-endpoint: F CULMORUM IC50 (µg/mL)
Record the value in µg/mL, omitting the unit from your answer.

Record excerpt, results attached:
- CC(=O)NCC(=O)N[C@@H](CO)C(=O)N[C@@H](CS)C(=O)N[C@@H](CC(N)=O)C(=O)N[C@@H](Cc1ccc(O)cc1)C(=O)N[C@H](C(=O)N[C@@H](Cc1ccccc1)C(=O)N1CCC[C@H]1C(=O)N[C@@H](C)C(=O)N[C@@H](Cc1c[nH]cn1)C(=O)N[C@@H](CCCCN)C(=O)N[C@@H](CS)C(N)=O)C(C)C [compound 123] (Ac-GSCNYVFPAHKC-NH2): 266
- CC[C@H](C)[C@H](NC(=O)[C@H](CS)NC(=O)[C@H](CCCCN)NC(=O)[C@H](Cc1c[nH]cn1)NC(=O)[C@H](C)NC(=O)[C@@H]1CCCN1C(=O)[C@H](Cc1ccccc1)NC(=O)[C@@H](NC(=O)[C@H](Cc1ccc(O)cc1)NC(=O)[C@H](CC(N)=O)NC(=O)[C@H](CS)NC(=O)[C@H](CO)NC(C)=O)C(C)C)C(N)=O [compound 124] (Ac-SCNYVFPAHKCI-NH2): 213
- CC[C@H](C)[C@H](NC(=O)[C@H](CS)NC(=O)[C@H](CCCCN)NC(=O)[C@H](Cc1c[nH]cn1)NC(=O)[C@H](C)NC(=O)[C@@H]1CCCN1C(=O)[C@H](Cc1ccccc1)NC(=O)[C@@H](NC(C)=O)C(C)C)C(=O)N[C@@H](CS)C(=O)N[C@@H](Cc1ccc(O)cc1)C(=O)N[C@@H](Cc1ccccc1)C(=O)N1CCC[C@H]1C(N)=O [compound 128] (Ac-VFPAHKCICYFP-NH2): 320
- CC[C@H](C)[C@H](NC(=O)[C@H](CS)NC(=O)[C@H](CCCCN)NC(=O)[C@H](Cc1c[nH]cn1)NC(=O)[C@H](C)NC(=O)[C@@H]1CCCN1C(=O)[C@H](Cc1ccccc1)NC(=O)[C@@H](NC(=O)[C@H](Cc1ccc(O)cc1)NC(=O)[C@H](CC(N)=O)NC(C)=O)C(C)C)C(=O)N[C@@H](CS)C(=O)N[C@@H](Cc1ccc(O)cc1)C(N)=O [compound 126] (Ac-NYVFPAHKCICY-NH2): 189

Field: next molecule
Which F CULMORUM IC50 value is on record for CC[C@H](C)[C@H](NC(=O)[C@H](CS)NC(=O)[C@H](CCCCN)NC(=O)[C@H](Cc1c[nH]cn1)NC(=O)[C@H](C)NC(=O)[C@@H]1CCCN1C(=O)[C@H](Cc1ccccc1)NC(=O)[C@@H](NC(=O)[C@H](Cc1ccc(O)cc1)NC(C)=O)C(C)C)C(=O)N[C@@H](CS)C(=O)N[C@@H](Cc1ccc(O)cc1)C(=O)N[C@@H](Cc1ccccc1)C(N)=O [compound 127] (Ac-YVFPAHKCICYF-NH2) ? 354
